molecular target: T1, human melanocortin-4 receptor (recombinant hMC4-R) (human, UniProt P32245 1-332); test: competition with labelled NDP-α-MSH ([I125] or Eu), hMC4-R HEK-293 membranes
T1 construct: whole, on cells; Ki assays used membrane homogenates of HEK-293 cells expressing recombinant hMC4-R; cAMP assays used HEK-293 T-REx cells induced with 0.1 ng/mL doxycycline; also called human MC4-R; MC4 receptor
T1 sequence (P32245 whole entry): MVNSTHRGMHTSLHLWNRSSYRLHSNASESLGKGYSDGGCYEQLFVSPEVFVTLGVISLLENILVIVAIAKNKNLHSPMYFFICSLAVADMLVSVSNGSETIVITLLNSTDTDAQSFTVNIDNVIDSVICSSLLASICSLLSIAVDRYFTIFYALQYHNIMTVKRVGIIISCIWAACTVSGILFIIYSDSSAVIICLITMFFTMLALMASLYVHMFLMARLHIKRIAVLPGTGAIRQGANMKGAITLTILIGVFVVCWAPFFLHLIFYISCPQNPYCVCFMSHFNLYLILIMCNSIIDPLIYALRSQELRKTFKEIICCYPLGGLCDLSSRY
Numbered stars: 1 amine (or outer) side, 2 acyl side, 3 side chain; on linkers, the order of the positions; unused ones are H or OH. Bridge positions count the residues as written; N and C are the ends. Square brackets hold non-standard residues; d marks the D form. Ser(Bzl) = O-benzyl-serine, O=C([C@H](COCc1ccccc1)N[*:1])[*:2]; Nle = CCCC[C@H](N)C(=O)O; Orn = NCCC[C@H](N)C(=O)O
Documented pKi across a set of binders
Notebook: values listed as pKi are -log10 of the concentration (mol/L).

Ac-[Nle][Orn]H[dF]RWE-NH2 (lactam 2-7) [Peptide No. 36: Ac-Nle-cyclo(Orn-His-D-Phe-Arg-Trp-Glu)-NH2]
9.70
Ac-R[Orn]H[dF]RWE-NH2 (lactam 2-7) [Peptide No. 38: Ac-Arg-cyclo(Orn-His-D-Phe-Arg-Trp-Glu)-NH2]
9.00
Ac-RDN[dF]RWK-NH2 (lactam 2-7; SMILES CC(=O)N[C@@H](CCCNC(=N)N)C(=O)N[C@H]1CC(=O)NCCCC[C@@H](C(N)=O)NC(=O)[C@H](Cc2c[nH]c3ccccc23)NC(=O)[C@H](CCCNC(=N)N)NC(=O)[C@@H](Cc2ccccc2)NC(=O)[C@H](CC(N)=O)NC1=O, also called Peptide Structure (Asp...Lys) in the rows of No. 34 and No. 46) [Asp...Lys analog of peptides No. 34 and No. 46: Ac-Arg-cyclo(Asp-Asn-D-Phe-Arg-Trp-Lys)-NH2]
7.49
Ac-RD[Ser(Bzl)][dF]RWK-OH (lactam 2-7, also called Peptide Structure (Asp...Lys) in the rows of No. 17 and No. 48) [Asp...Lys analog of peptides No. 17 and No. 48: Ac-Arg-cyclo(Asp-Ser(Bzl)-D-Phe-Arg-Trp-Lys)-OH]
8.05
Ac-K[Orn]H[dF]RWE-NH2 (lactam 2-7) [Peptide No. 40: Ac-Lys-cyclo(Orn-His-D-Phe-Arg-Trp-Glu)-NH2]
8.52

What does the record list as pKi for Ac-RDP[dF]RWK-NH2 (lactam 2-7, also called Peptide Structure (Asp...Lys) in the row of No. 47) [Asp...Lys analog of peptide No. 47: Ac-Arg-cyclo(Asp-Pro-D-Phe-Arg-Trp-Lys)-NH2] ?
7.77

These measurements were taken from patent US20120077957A1.
